Please respond with reported melting point for every item in the list.

| molecule | melting point |
| --- | --- |
| CCN(CC)C(=O)c1ccc2ccccc2c1/C=C/c1ccccc1 | 86 to 89 °C |

# per-item lookup of melting point; items listed below
1. CS(=O)(=O)c1ccc(-c2cc(C(F)F)nn2C2CCCCC2)cc1F
2. COc1cc(C=CC(=O)c2ccccc2)cc(C(F)(F)F)c1O
3. COCCNC(=O)c1cccc(-c2cccc3nc(Cc4cccc(C(F)(F)F)c4)sc23)c1
4. CNC(=O)c1ccc2c(c1)CCOC2CCN1CCN(c2ccc(OC)cc2)CC1 (stereo unspecified)
5. Cc1cc2c(cc1C)SC(CCCN1CCN(c3ccc(F)cc3)CC1)C(=O)N2 (stereo unspecified)
6. CC(C)=CCOc1ccc(C(=O)C=Cc2ccc(C)cc2)c(O)c1

["138 to 139 °C", "166 to 168 °C", "101 to 102 °C", "174 to 176 °C", "161 to 162 °C", "108 to 109 °C"]

# per-item lookup of melting point; items listed below
1. COCCNc1nc(-n2ccnc2)nc2ccc(C(C)=O)cc12
2. CC(C)(C(=O)O)n1c(=O)[nH]c2cc(Cl)ccc2c1=O
3. CCCOc1cccc(CCCOc2ccc3c(c2)C=C(C(=O)O)CCS3(=O)=O)c1
4. O=C1c2ccc(Cl)cc2C(=O)N1C1CCN(CCc2c[nH]c3ccccc23)CC1

["208 to 210 °C", "260 to 263 °C", "128 to 131 °C", "188 to 190 °C"]

The measured values listed here are drawn from a melting point compilation (Tetko et al.; mined from patent text by program, amines drawn as free bases though some values may be those of a salt).
